Cited source: patent US20220064302A1

Reported kon values for a set of binders
Target: T1, human PD-1 (soluble PD-1 protein, R&D Systems) (human, UniProt Q15116 25-170, limits assumed)
T1 construct: the kinetics paragraphs say only 'PD-1' / 'antigen'; also called hPD-1; soluble PD-1 immunogen
T1 sequence (Q15116 25-170 limits assumed): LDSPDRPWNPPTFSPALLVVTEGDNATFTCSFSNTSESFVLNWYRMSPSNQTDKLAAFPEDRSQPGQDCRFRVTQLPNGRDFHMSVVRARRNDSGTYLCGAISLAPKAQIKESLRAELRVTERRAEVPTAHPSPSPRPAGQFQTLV
Assay: array SPR (Carterra), mAb captured, PD-1 as analyte
Dear colleague, please return just the value in M⁻¹ s⁻¹, with no unit written.

Binder | Unit spec | Reported measurement
A5 (antibody, V domains shown, Tested as full-length mAb expressed in CHO cells; also called antibody A5; L5H5) VH: QVQLVESGGGVVQPGRSLRLSCAASGFTFSNYGTHWVRQAPGKGLEWVAVIWYDGSNKYYADSVKGRFTISRDNSKNTLYLQMNSLRAEDTAVYYCARDRIYCSSTRCIGFGYYYYGMDVWGQGTTVTVSS VL: AIQLTQSPSSLSASVGDRVTITCRASQGISSALAWYQQKPGKAPKLLIYDASSLESGVPSRFSGSGSGTDFTLTISSLQPEDFATYYCQQFNNYPWTFGQGTKVEIKR | M⁻¹ s⁻¹ | 6400

// kon lookup, binder = A6 (antibody, V domains shown, Tested as full-length mAb expressed in CHO cells; also called antibody A6; L6H6) VH: QVQLVESGGGVVQPGRSLRLSCAASGFTFSSYGMHWVRQAPGKGLEWVAVIWYDGSNKYYADSVKGRFTISRDNSKNTLYLQMNSLRAEDTAVYYCAGGGNYWGDFWGQGTLVTVSS VL: DIQMTQSPSSLSASVGDRVTITCRASQGIRNDLGWYQQKPGKAPKRLLYAASNLQLGVPSRFSGSGSETEFTLTISSLQPEDFATYYCLQHNSYPWTFGQGTKVEIKR , result: 12000

// kon lookup, binder = A3 (antibody, V domains shown, Tested as full-length mAb expressed in CHO cells; also called antibody A3; L3H3) VH: QVQLVESGGGEVQPGRSLRLSCAASGFTFSDYGMHWVRQAPGKGLEWVAVIWYDGSNKYYADSVKGRFTISRDNSKNTLYLQMNSLRAEDTAVYYCAGGGSYWGDYWGQGTLVTVSS VL: DIQMTQSPSSLSASVGDRVTITCRASQGIRNELGWYQQKPGKAPKRLIYAASSLQSGVPSRFSGSGSGTEFTLTISSLQPEDFATYYCLQHYIYPWTFGQGTKVEIKR , result: 10000
